B1: library; numbered along this chain (parent)
chain: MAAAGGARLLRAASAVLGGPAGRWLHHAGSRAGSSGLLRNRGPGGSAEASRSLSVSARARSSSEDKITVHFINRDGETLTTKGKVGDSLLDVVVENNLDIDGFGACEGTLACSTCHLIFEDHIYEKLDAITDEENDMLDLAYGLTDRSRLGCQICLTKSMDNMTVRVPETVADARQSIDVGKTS

- Variants of: B1
- Assay Explanation: scaled log2 fold change in cell abundance, elesclomol vs control (0 = silent mean, 1 = nonsense mean) (scaled log2 ratio); higher = higher viability under elesclomol (loss of FDX1 cuproptosis function);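 note: variant abundance is its share of total variant reads in each endpoint sample, from next-generation sequencing of the integrated ORF PCR-amplified out of genomic DNA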
- Assay Setup: with HEK293T FDX1 KO; elesclomol 40 nM; glucose 10 mM; 11 days
Readout Label: scaled log2 fold change
// return a plain number; no unit text

>>> assay_result("A49C")
-0.749

Form: variant = `A129L` ; scaled log2 fold change = 1.27

Form: variant = `R51E` ; scaled log2 fold change = -0.168

Form: variant = `D173N` ; scaled log2 fold change = -0.47

Form: variant = `L138S` ; scaled log2 fold change = 0.0871

Form: variant = `I100Y` ; scaled log2 fold change = -0.139

Form: variant = `R60T` ; scaled log2 fold change = -0.542

Source: the supplement of paper PMC12855868
